# target.under.test: UniProtKB Q8IV63
# Sequence (Q8IV63 1-474): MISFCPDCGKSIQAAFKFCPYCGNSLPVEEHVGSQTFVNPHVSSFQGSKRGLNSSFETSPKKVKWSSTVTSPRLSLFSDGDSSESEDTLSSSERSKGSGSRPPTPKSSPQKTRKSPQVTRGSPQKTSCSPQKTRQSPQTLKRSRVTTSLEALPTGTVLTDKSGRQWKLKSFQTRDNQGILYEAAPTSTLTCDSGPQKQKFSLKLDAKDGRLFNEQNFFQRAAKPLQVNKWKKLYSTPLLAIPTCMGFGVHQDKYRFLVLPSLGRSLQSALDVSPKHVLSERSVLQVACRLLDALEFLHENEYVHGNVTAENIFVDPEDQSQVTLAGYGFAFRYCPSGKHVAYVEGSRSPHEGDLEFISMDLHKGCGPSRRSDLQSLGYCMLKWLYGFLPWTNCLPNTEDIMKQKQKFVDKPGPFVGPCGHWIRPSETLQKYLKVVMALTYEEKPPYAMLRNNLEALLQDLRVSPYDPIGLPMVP
# experimental.details: Further analysis of a plurality of inhibitors and a plurality of kinases (Table 5 inhibition results)
# Type: biochemical
# Parameters: scale not given here
# applied.conditions: kinase LOC51231 (Part I, plate C12, Domain 1); inhibitor 100 uM
value.kind: Inhibition Results (Level)
A bare number is all that is needed in reply.

These recorded examples may help you get a feel for the data.
COc1cc2ncnc(Nc3cccc(Cl)c3)c2cc1OC 0
Cn1cc(C2=C(c3cn(CCCSC(=N)N)c4ccccc34)C(=O)NC2=O)c2ccccc21 2

// moving on: another record for Inhibition Results (Level)
Find the measured Inhibition Results (Level) of CC(C)(C)n1nc(-c2ccc(Cl)cc2)c2c(N)ncnc21 and report it.
0

* * *

# target.under.test: kinases of Table 5 (Homo sapiens, UniProt Q96KB5)
# Sequence (Q96KB5 whole entry): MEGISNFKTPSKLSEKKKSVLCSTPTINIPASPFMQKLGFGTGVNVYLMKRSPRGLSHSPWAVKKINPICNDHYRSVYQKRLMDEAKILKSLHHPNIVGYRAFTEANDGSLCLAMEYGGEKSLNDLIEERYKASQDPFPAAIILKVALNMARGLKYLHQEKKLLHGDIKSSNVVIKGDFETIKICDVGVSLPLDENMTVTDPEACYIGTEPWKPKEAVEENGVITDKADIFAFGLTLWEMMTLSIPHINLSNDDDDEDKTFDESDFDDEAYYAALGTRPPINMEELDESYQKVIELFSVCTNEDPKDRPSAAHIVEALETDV
# experimental.details: Further analysis of a plurality of inhibitors and a plurality of kinases (Table 5 inhibition results)
# Type: biochemical
# Design: scale not given here
# applied.conditions: kinase TOPK (Part I, plate G7, Domain 1); inhibitor 100 uM
value.kind: Inhibition Results (Level)
Keep it simple and answer with nothing but the number.

Please review the following examples before continuing.
Cn1cc(C2=C(c3cn(CCCSC(=N)N)c4ccccc34)C(=O)NC2=O)c2ccccc21 0
O=c1c(O)c(-c2ccc(O)c(O)c2)oc2cc(O)cc(O)c12 0
COc1cc2ncnc(Nc3cccc(Cl)c3)c2cc1OC 1
N#C/C(=C/c1ccc(O)c(O)c1)C(=O)NCc1ccccc1 2
O=S(=O)(NCCNC/C=C/c1ccc(Br)cc1)c1cccc2cnccc12 2

Quote Inhibition Results (Level) reported for O=c1c(-c2ccc(O)cc2)coc2cc(O)cc(O)c12 please.
2

Give recorded Inhibition Results (Level). CC(C)(C)n1nc(-c2ccc(Cl)cc2)c2c(N)ncnc21
2

Retrieve Inhibition Results (Level) measured for CC(=O)c1c(O)c(C)c(O)c(Cc2c(O)c3c(c(C(=O)/C=C/c4ccccc4)c2O)OC(C)(C)C=C3)c1O and print it.
2

* * *

# target.under.test: kinases of Table 5 (Homo sapiens)
# experimental.details: Further analysis of a plurality of inhibitors and a plurality of kinases (Table 5 inhibition results)
# Type: biochemical
# Design: scale not given here
# applied.conditions: kinase STK13 (Part I, plate G11, Domain 1); inhibitor 100 uM
value.kind: Inhibition Results (Level)
Keep it simple and answer with nothing but the number.

Consider the worked cases shown below.
compound	Inhibition Results (Level)
O=c1c(O)c(-c2ccc(O)c(O)c2)oc2cc(O)cc(O)c12 [Quercetin]	2
CC(C)(C)n1nc(-c2ccc(Cl)cc2)c2c(N)ncnc21 [PP2]	2
N#C/C(=C/c1ccc(O)c(O)c1)C(=O)NCc1ccccc1 [AG 490]	2

Identify the reported Inhibition Results (Level) for the following entry. COc1cc2ncnc(Nc3cccc(Cl)c3)c2cc1OC [AG 1478]
1

* * *

# target.under.test: kinases of Table 5 (Homo sapiens)
# experimental.details: Further analysis of a plurality of inhibitors and a plurality of kinases (Table 5 inhibition results)
# Assay type: biochemical
# Design: scale not given here
# applied.conditions: kinase ABL1; inhibitor 100 uM
value.kind: Inhibition level
A bare number is all that is needed in reply.

// worked examples, Inhibition level included
molecule	Inhibition level
Cn1cc(C2=C(c3cn(CCCSC(=N)N)c4ccccc34)C(=O)NC2=O)c2ccccc21 [Ro-31-8220]	2
N#C/C(=C/c1ccc(O)c(O)c1)C(=O)NCc1ccccc1 [AG 490]	0
COc1cc2ncnc(Nc3cccc(Cl)c3)c2cc1OC [AG 1478]	1

Proceed to the following item.
Look up and report measured Inhibition level for this entry: O=c1c(-c2ccc(O)cc2)coc2cc(O)cc(O)c12 [Genistein]
0

* * *

# target.under.test: kinases of Table 5 (Homo sapiens)
# experimental.details: Further analysis of a plurality of inhibitors and a plurality of kinases (Table 5 inhibition results)
# Type: biochemical
# Set-up: scale not given here
# applied.conditions: kinase EPHB2 (Part I, plate E5, Domain 1); inhibitor 100 uM
Item-by-item account of Inhibition Results (Level)
// return just the number, without any unit appended

These recorded examples may help you get a feel for the data.
O=c1c(-c2ccc(O)cc2)coc2cc(O)cc(O)c12 2
Cn1cc(C2=C(c3cn(CCCSC(=N)N)c4ccccc34)C(=O)NC2=O)c2ccccc21 2

Let's switch to this compound now.
Give a short answer stating reported Inhibition Results (Level) for O=S(=O)(NCCNC/C=C/c1ccc(Br)cc1)c1cccc2cnccc12 .
2

* * *

# target.under.test: kinases of Table 5 (Homo sapiens, UniProt Q9UHD2)
# Sequence (Q9UHD2 whole entry): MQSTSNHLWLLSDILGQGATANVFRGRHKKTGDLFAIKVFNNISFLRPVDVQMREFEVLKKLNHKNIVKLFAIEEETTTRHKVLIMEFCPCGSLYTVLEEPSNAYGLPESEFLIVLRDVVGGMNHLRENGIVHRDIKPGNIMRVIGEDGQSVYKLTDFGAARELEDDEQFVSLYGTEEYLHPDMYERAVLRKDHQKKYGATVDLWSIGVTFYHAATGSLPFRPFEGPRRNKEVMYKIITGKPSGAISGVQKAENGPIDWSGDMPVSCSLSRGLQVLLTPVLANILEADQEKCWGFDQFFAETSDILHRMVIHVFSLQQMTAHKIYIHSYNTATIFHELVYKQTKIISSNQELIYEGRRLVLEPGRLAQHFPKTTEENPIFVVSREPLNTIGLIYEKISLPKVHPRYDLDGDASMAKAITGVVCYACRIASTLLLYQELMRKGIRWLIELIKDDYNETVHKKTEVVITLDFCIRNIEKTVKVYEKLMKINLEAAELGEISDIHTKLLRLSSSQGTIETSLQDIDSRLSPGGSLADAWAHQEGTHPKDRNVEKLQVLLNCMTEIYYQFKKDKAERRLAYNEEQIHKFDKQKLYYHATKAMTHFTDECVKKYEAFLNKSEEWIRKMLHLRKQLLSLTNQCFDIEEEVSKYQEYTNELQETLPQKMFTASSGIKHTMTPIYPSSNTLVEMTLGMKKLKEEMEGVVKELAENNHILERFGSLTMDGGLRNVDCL
# experimental.details: Further analysis of a plurality of inhibitors and a plurality of kinases (Table 5 inhibition results)
# Type: biochemical
# Design: scale not given here
# applied.conditions: kinase TBK1 (Part I, plate G1, Domain 0); inhibitor 100 uM
Measured Inhibition Results (Level) values are reported for all entries that follow.
// response body must contain only the number

These recorded examples may help you get a feel for the data.
O=c1c(O)c(-c2ccc(O)c(O)c2)oc2cc(O)cc(O)c12 0
Cn1cc(C2=C(c3cn(CCCSC(=N)N)c4ccccc34)C(=O)NC2=O)c2ccccc21 2
N#C/C(=C/c1ccc(O)c(O)c1)C(=O)NCc1ccccc1 2
CC(=O)c1c(O)c(C)c(O)c(Cc2c(O)c3c(c(C(=O)/C=C/c4ccccc4)c2O)OC(C)(C)C=C3)c1O 1
O=c1c(-c2ccc(O)cc2)coc2cc(O)cc(O)c12 2
COc1cc2ncnc(Nc3cccc(Cl)c3)c2cc1OC 2
O=S(=O)(NCCNC/C=C/c1ccc(Br)cc1)c1cccc2cnccc12 2

Please examine the following record next.
Could you please provide reported Inhibition Results (Level) for CC(C)(C)n1nc(-c2ccc(Cl)cc2)c2c(N)ncnc21 ? Thanks!
1

* * *

# target.under.test: kinases of Table 5 (Homo sapiens, UniProt Q08881)
# Sequence (Q08881 1-620): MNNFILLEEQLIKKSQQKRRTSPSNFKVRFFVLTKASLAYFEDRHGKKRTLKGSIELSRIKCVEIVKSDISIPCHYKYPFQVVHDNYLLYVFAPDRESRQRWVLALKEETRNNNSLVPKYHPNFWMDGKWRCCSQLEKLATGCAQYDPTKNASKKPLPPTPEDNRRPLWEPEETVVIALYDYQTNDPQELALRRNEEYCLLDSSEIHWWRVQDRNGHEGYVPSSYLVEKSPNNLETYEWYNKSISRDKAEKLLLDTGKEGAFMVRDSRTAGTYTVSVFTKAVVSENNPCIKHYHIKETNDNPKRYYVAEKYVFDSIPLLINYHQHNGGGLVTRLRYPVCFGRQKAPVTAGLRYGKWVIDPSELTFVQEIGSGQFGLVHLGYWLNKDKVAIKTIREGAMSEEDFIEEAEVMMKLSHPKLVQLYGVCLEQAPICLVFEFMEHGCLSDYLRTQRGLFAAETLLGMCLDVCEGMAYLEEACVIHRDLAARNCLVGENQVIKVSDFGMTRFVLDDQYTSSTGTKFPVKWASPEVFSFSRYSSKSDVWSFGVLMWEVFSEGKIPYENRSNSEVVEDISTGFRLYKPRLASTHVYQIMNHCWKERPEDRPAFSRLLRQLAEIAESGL
# experimental.details: Further analysis of a plurality of inhibitors and a plurality of kinases (Table 5 inhibition results)
# Assay type: biochemical
# Set-up: scale not given here
# applied.conditions: kinase ITK (Part I, plate E4, Domain 0); inhibitor 100 uM
value.kind: Inhibition Results (Level)

molecule	target.under.test	Inhibition Results (Level)
O=c1c(O)c(-c2ccc(O)c(O)c2)oc2cc(O)cc(O)c12 [Quercetin]	kinases of Table 5 (Homo sapiens, UniProt Q08881)	0
N#C/C(=C/c1ccc(O)c(O)c1)C(=O)NCc1ccccc1 [AG 490]	kinases of Table 5 (Homo sapiens, UniProt Q08881)	1
CC(C)(C)n1nc(-c2ccc(Cl)cc2)c2c(N)ncnc21 [PP2]	kinases of Table 5 (Homo sapiens, UniProt Q08881)	2
O=S(=O)(NCCNC/C=C/c1ccc(Br)cc1)c1cccc2cnccc12 [H-89]	kinases of Table 5 (Homo sapiens, UniProt Q08881)	1

Tell us which Inhibition Results (Level) value is on record for COc1cc2ncnc(Nc3cccc(Cl)c3)c2cc1OC [AG 1478]
1
